// provenance: the RNAGym collection of RNA variant scans (doi:10.1073/pnas.2313332121)

B1: TPR t1 (parent)
chain: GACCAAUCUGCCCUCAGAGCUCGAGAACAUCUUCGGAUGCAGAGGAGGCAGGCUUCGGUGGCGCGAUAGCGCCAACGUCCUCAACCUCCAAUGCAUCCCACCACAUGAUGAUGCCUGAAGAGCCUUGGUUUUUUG

- Variants of: B1
- test.name: polymerase ribozyme fitness, log enrichment relative to wild type (log ratio); higher = more active; in vitro selection for triplet polymerase activity
Parameter threshold = -3. Response is 1 when polymerase ribozyme fitness (log ratio) meets or exceeds it, else -1.

{"variant.notation": "G48A G69U C72U U126G G128A U132A", "assigned.category": 1}
{"variant.notation": "A2G C13U C53U C72G", "assigned.category": 1}
{"variant.notation": "C12A U87A C89G C94A G113A", "assigned.category": -1}

-- ask Is polymerase ribozyme fitness (log ratio) for G10A G69U C79U C98A at or above -3?
-- reply 1

-- ask Is polymerase ribozyme fitness (log ratio) for G128U U130C at or above -3?
-- reply 1

-- ask Is polymerase ribozyme fitness (log ratio) for C15U G71A C79U at or above -3?
-- reply 1

-- ask Is polymerase ribozyme fitness (log ratio) for U7G G117U at or above -3?
-- reply 1

-- ask Is polymerase ribozyme fitness (log ratio) for G47C G61U at or above -3?
-- reply 1

-- ask Is polymerase ribozyme fitness (log ratio) for A50C G69A U78C C97U at or above -3?
-- reply -1
